Test system: Yersinia pseudotuberculosis
measurement notes: growth AUC normalised to DMSO control (fraction of control); higher = less growth inhibition, active = hit call of the paper
measurement setup: 20 µM
Counter-ions that a name gives are not always drawn.
endpoint label: growth AUC normalised to DMSO control
Answer using only a numeral; do not append any unit.

Use the examples below as a reference point.
| compound | reported result |
| --- | --- |
| CCN(CC)CCOC(=O)C1(C2CCCCC2)CCCCC1 [Dicyclomine hydrochloride] | 0.98 |
| CC(C)NCC(O)c1ccc(NS(C)(=O)=O)cc1 (centres undefined) [Sotalol hydrochloride] | 1.02 |
| CC(C(=O)O)c1ccc2c(c1)Cc1cccnc1O2 (centres undefined) | 1.01 |
| NCc1ccccc1CC(=O)N[C@@H]1C(=O)N2C(C(=O)O)=C(CSc3nnnn3CC(=O)O)CS[C@H]12 [Ceforanide] | 0.023 |
| CC(CNC1CCCCC1)OC(=O)c1ccccc1 (centres undefined) [Hexylcaine hydrochloride] | 0.986 |
| N=C(N)NC(=O)c1nc(Cl)c(N)nc1N [Amiloride hydrochloride dihydrate] | 1.02 |
| COc1c(N2CCNC(C)C2)c(F)cc2c(=O)c(C(=O)O)cn(C3CC3)c12 (centres undefined) | 0.0287 |
| NS(=O)(=O)c1cc(Cl)c(Cl)c(S(N)(=O)=O)c1 [Dichlorphenamide] | 1.02 |

get_value(item= "Oc1ccc(OCc2ccccc2)cc1" , readout=growth AUC normalised to DMSO control) returns 0.974

---

Test system: Yersinia pseudotuberculosis
measurement notes: growth AUC normalised to DMSO control (fraction of control); higher = less growth inhibition, active = hit call of the paper
measurement setup: 20 µM
Label yes (1) when growth AUC normalised to DMSO control is at or above 1; otherwise label no (0).

| compound | label class |
| --- | --- |
| OCc1cc(C(O)CNCCCCCCOCCCCc2ccccc2)ccc1O (configuration not stated) | no (0) |
| CCn1cc(C(=O)O)c(=O)c2cnc(N3CCNCC3)nc21 | no (0) |
| C#C[C@]1(O)CC[C@H]2[C@@H]3CCC4=Cc5oncc5C[C@]4(C)[C@H]3CC[C@@]21C | no (0) |
| COc1ccc(C(=O)NCc2ccc(OCCN(C)C)cc2)cc1OC [Itopride] | yes (1) |
| O=C(Nc1cccc2c(=O)cc(-c3nnn[nH]3)oc12)c1ccc(OCCCCc2ccccc2)cc1 | no (0) |

# input for lookup
Problem: growth AUC normalised to DMSO control >= 1 for Clc1ccc(C(Cn2ccnc2)OCc2ccsc2Cl)c(Cl)c1 (configuration not stated) ?
Solution: yes (1)

---

Tested on: S. enterica typhimurium tolC KO;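 also: active when median AUC fell below 0.1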
measurement notes: growth AUC normalised to DMSO control (median) (fraction of control); higher = less growth inhibition, active = hit call of the paper
measurement setup: 20 µM
Structures can show the parent of a compound that is named as a salt.
endpoint label: growth AUC normalised to DMSO control
Respond using a number only.

| compound | growth AUC normalised to DMSO control |
| --- | --- |
| O=C1C(=O)c2ccccc2C(O)=C1C1CCC(c2ccc(Cl)cc2)CC1 (centres undefined) | 1.01 |

Entry under test: "Nc1nc(=O)[nH]cc1F" . Its growth AUC normalised to DMSO control was 0.965

growth AUC normalised to DMSO control in this record for CC(=O)Oc1ccccc1C(=O)Nc1ncc([N+](=O)[O-])s1 [Nitazoxanide] : 0.414

Record CCc1ccc(C(=O)C(C)CN2CCCCC2)cc1 (centres undefined) [Eperisone Hydrochloride] . Reported growth AUC normalised to DMSO control: 0.989
